Numbers sourced from the supplement of paper PMC9112550.

A collection of sequences and their measured shrunken log2 fold change
test system: Escherichia coli TOP10; experiment: shrunken log2 fold change of peptide-encoding DNA abundance (4.5 h post-induction vs induction); higher = less antimicrobial activity (less host growth inhibition); settings: time post-induction: 4.5 h; library: site-saturation at positions 5, 18, 19, 20;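 note: peptides expressed intracellularly from a pBAD plasmid library in pooled LB shake-flask culture, induced with 0.3% L-arabinose, DNA abundance read by NGS, three biological replicates, DESeq2 with apeglm shrinkage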

{"Biosequence": "RRIRCRPPRLPRPRPRPQRPPRP", "shrunken log2 fold change": 0.166}
{"Biosequence": "RRIRVRPPRLPRPRPRPCWVPRP", "shrunken log2 fold change": 0.0559}
{"Biosequence": "RRIRTRPPRLPRPRPRPHQPPRP", "shrunken log2 fold change": -0.0196}
{"Biosequence": "RRIRRRPPRLPRPRPRPQRYPRP", "shrunken log2 fold change": -0.15}
{"Biosequence": "RRIRTRPPRLPRPRPRPWGCPRP", "shrunken log2 fold change": -0.151}
{"Biosequence": "RRIRHRPPRLPRPRPRPPPTPRP", "shrunken log2 fold change": 0.766}
{"Biosequence": "RRIRQRPPRLPRPRPRPNIIPRP", "shrunken log2 fold change": -0.247}
{"Biosequence": "RRIRVRPPRLPRPRPRPTINPRP", "shrunken log2 fold change": -0.286}
{"Biosequence": "RRIRFRPPRLPRPRPRPYLYPRP", "shrunken log2 fold change": -0.498}
{"Biosequence": "RRIRDRPPRLPRPRPRPDQNPRP", "shrunken log2 fold change": -0.0888}
{"Biosequence": "RRIRCRPPRLPRPRPRPNGMPRP", "shrunken log2 fold change": -0.398}
{"Biosequence": "RRIRRRPPRLPRPRPRPFNVPRP", "shrunken log2 fold change": -0.264}
{"Biosequence": "RRIRKRPPRLPRPRPRPHSCPRP", "shrunken log2 fold change": 0.0828}
{"Biosequence": "RRIRTRPPRLPRPRPRPDWAPRP", "shrunken log2 fold change": 0.327}
{"Biosequence": "RRIRMRPPRLPRPRPRPVGMPRP", "shrunken log2 fold change": 0.366}
{"Biosequence": "RRIRGRPPRLPRPRPRPWEEPRP", "shrunken log2 fold change": -0.0105}
{"Biosequence": "RRIRARPPRLPRPRPRPPQPPRP", "shrunken log2 fold change": 1.03}
{"Biosequence": "RRIRCRPPRLPRPRPRPAPWPRP", "shrunken log2 fold change": 0.438}
{"Biosequence": "RRIRLRPPRLPRPRPRPIVFPRP", "shrunken log2 fold change": -0.0377}
{"Biosequence": "RRIRWRPPRLPRPRPRPDNSPRP", "shrunken log2 fold change": -0.0707}
{"Biosequence": "RRIRDRPPRLPRPRPRPALVPRP", "shrunken log2 fold change": 0.0217}
{"Biosequence": "RRIRQRPPRLPRPRPRPVGVPRP", "shrunken log2 fold change": 0.475}
{"Biosequence": "RRIRVRPPRLPRPRPRPQKEPRP", "shrunken log2 fold change": -0.178}
{"Biosequence": "RRIRHRPPRLPRPRPRPEQMPRP", "shrunken log2 fold change": 0.023}
{"Biosequence": "RRIRKRPPRLPRPRPRPECDPRP", "shrunken log2 fold change": 3.35}
{"Biosequence": "RRIRYRPPRLPRPRPRPESMPRP", "shrunken log2 fold change": -0.267}
{"Biosequence": "RRIRTRPPRLPRPRPRPNIPPRP", "shrunken log2 fold change": -0.593}
{"Biosequence": "RRIRYRPPRLPRPRPRPGQCPRP", "shrunken log2 fold change": 0.00338}
{"Biosequence": "RRIRWRPPRLPRPRPRPDPHPRP", "shrunken log2 fold change": 0.135}
{"Biosequence": "RRIRHRPPRLPRPRPRPNMWPRP", "shrunken log2 fold change": -0.799}
{"Biosequence": "RRIRERPPRLPRPRPRPQGRPRP", "shrunken log2 fold change": -0.0137}
{"Biosequence": "RRIRARPPRLPRPRPRPHDYPRP", "shrunken log2 fold change": 0.141}
{"Biosequence": "RRIRERPPRLPRPRPRPQYTPRP", "shrunken log2 fold change": -1.16}
{"Biosequence": "RRIRVRPPRLPRPRPRPMHIPRP", "shrunken log2 fold change": -0.231}
{"Biosequence": "RRIRIRPPRLPRPRPRPEKMPRP", "shrunken log2 fold change": -0.165}
{"Biosequence": "RRIRSRPPRLPRPRPRPIIWPRP", "shrunken log2 fold change": -0.174}
{"Biosequence": "RRIRDRPPRLPRPRPRPHFHPRP", "shrunken log2 fold change": -0.0477}
{"Biosequence": "RRIRRRPPRLPRPRPRPNMQPRP", "shrunken log2 fold change": 0.183}
{"Biosequence": "RRIRPRPPRLPRPRPRPLDQPRP", "shrunken log2 fold change": 0.0885}
{"Biosequence": "RRIRIRPPRLPRPRPRPFEEPRP", "shrunken log2 fold change": -0.569}
{"Biosequence": "RRIRIRPPRLPRPRPRPGLLPRP", "shrunken log2 fold change": -0.0591}
{"Biosequence": "RRIRTRPPRLPRPRPRPHRVPRP", "shrunken log2 fold change": 0.0498}
{"Biosequence": "RRIRGRPPRLPRPRPRPLRTPRP", "shrunken log2 fold change": 1.69}
{"Biosequence": "RRIRIRPPRLPRPRPRPIHDPRP", "shrunken log2 fold change": 2.93}
{"Biosequence": "RRIRTRPPRLPRPRPRPCHPPRP", "shrunken log2 fold change": -0.0634}
{"Biosequence": "RRIRHRPPRLPRPRPRPLKWPRP", "shrunken log2 fold change": -0.0708}
{"Biosequence": "RRIRNRPPRLPRPRPRPDDMPRP", "shrunken log2 fold change": -0.107}
{"Biosequence": "RRIRQRPPRLPRPRPRPPHWPRP", "shrunken log2 fold change": 0.641}
{"Biosequence": "RRIRARPPRLPRPRPRPCIWPRP", "shrunken log2 fold change": 0.118}
{"Biosequence": "RRIRNRPPRLPRPRPRPQQMPRP", "shrunken log2 fold change": 0.0512}
{"Biosequence": "RRIRDRPPRLPRPRPRPATYPRP", "shrunken log2 fold change": -0.141}
{"Biosequence": "RRIRRRPPRLPRPRPRPWTGPRP", "shrunken log2 fold change": -0.444}
{"Biosequence": "RRIRDRPPRLPRPRPRPPLIPRP", "shrunken log2 fold change": 0.129}
{"Biosequence": "RRIRVRPPRLPRPRPRPIIYPRP", "shrunken log2 fold change": -0.475}
{"Biosequence": "RRIRLRPPRLPRPRPRPMWSPRP", "shrunken log2 fold change": -0.0258}
{"Biosequence": "RRIRIRPPRLPRPRPRPKFTPRP", "shrunken log2 fold change": -0.8}
{"Biosequence": "RRIRWRPPRLPRPRPRPGWIPRP", "shrunken log2 fold change": 0.207}
{"Biosequence": "RRIRCRPPRLPRPRPRPEISPRP", "shrunken log2 fold change": -0.0399}
{"Biosequence": "RRIRMRPPRLPRPRPRPICTPRP", "shrunken log2 fold change": 0.153}
{"Biosequence": "RRIRGRPPRLPRPRPRPQRTPRP", "shrunken log2 fold change": 0.853}
{"Biosequence": "RRIRDRPPRLPRPRPRPEPYPRP", "shrunken log2 fold change": 0.118}
{"Biosequence": "RRIRGRPPRLPRPRPRPHIIPRP", "shrunken log2 fold change": 0.234}
{"Biosequence": "RRIRIRPPRLPRPRPRPFCNPRP", "shrunken log2 fold change": -0.553}
